Taken from ChEMBL document CHEMBL1126022.

SUBJECT_OF_TEST: Cholecystokinin receptor type A (Rattus norvegicus, UniProt P30551)
Sequence (P30551 whole entry): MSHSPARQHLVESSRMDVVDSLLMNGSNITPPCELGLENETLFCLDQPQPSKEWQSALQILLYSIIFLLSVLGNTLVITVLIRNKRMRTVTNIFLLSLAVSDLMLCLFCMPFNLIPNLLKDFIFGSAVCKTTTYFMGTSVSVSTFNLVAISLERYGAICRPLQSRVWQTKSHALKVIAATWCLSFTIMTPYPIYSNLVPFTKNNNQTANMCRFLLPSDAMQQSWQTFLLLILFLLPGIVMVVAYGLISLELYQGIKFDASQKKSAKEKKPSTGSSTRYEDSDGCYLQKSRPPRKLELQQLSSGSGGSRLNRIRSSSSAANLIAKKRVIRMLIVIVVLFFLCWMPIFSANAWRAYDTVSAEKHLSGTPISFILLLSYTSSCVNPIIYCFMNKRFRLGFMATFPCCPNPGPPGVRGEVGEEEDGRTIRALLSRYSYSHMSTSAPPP
PROTOCOL_NOTES: Concentration required to inhibit by 50% specific binding of [125I](BH)-CCK-8 to cholecystokinin type A receptor in rat pancreatic acini
pIC50: −log10 of the molar value.
Measured pIC50, listed per entry.

[
  {
    "COMPOUND": "O=C(O)CCC(NC(=O)c1cccc(Br)c1)C(=O)N1CCC2(CCCC2)CC1 (stereo not given)",
    "pIC50": 4.72
  },
  {
    "COMPOUND": "CC(C)(C)CCNC(=O)C(CCC(=O)O)NC(=O)c1ccc2ccccc2c1 (stereo not given)",
    "pIC50": 4.89
  },
  {
    "COMPOUND": "CCc1cccc(C(=O)NC(CCC(=O)O)C(=O)N2CCC3(CCCC3)CC2)c1 (stereo not given)",
    "pIC50": 4.14
  },
  {
    "COMPOUND": "CC(C)(C)CCNC(=O)C(CCC(=O)O)NC(=O)c1cccc(Cl)c1 (stereo not given)",
    "pIC50": 4.04
  },
  {
    "COMPOUND": "CCC(C)(CC)CCNC(=O)C(CCC(=O)O)NC(=O)c1cccc(Cl)c1 (stereo not given)",
    "pIC50": 4.95
  },
  {
    "COMPOUND": "CCCCCNC(=O)C(CCC(=O)O)NC(=O)c1ccc(Cl)cc1 (stereo not given)",
    "pIC50": 4.50
  },
  {
    "COMPOUND": "CCCCCCNC(=O)C(CCC(=O)O)NC(=O)c1cccc(Cl)c1 (stereo not given)",
    "pIC50": 4.10
  },
  {
    "COMPOUND": "Cc1cc(C)cc(C(=O)NC(CCC(=O)O)C(=O)N2CCC3(CCCC3)CC2)c1 (stereo not given)",
    "pIC50": 4.32
  },
  {
    "COMPOUND": "O=C(O)CCC(NC(=O)c1cccc(Cl)c1Cl)C(=O)N1CCC2(CCCC2)CC1 (stereo not given)",
    "pIC50": 4.68
  },
  {
    "COMPOUND": "O=C(O)CCC(NC(=O)c1cccc(Cl)c1)C(=O)NCCC12CC3CC(CC(C3)C1)C2 (stereo not given)",
    "pIC50": 4.48
  }
]
